The values you see were collected from patent US20240270821A1.

molecular target: hGLP-1R (Homo sapiens, UniProt P43220); assay: cell-based or functional assay
Sequence (P43220 24-463): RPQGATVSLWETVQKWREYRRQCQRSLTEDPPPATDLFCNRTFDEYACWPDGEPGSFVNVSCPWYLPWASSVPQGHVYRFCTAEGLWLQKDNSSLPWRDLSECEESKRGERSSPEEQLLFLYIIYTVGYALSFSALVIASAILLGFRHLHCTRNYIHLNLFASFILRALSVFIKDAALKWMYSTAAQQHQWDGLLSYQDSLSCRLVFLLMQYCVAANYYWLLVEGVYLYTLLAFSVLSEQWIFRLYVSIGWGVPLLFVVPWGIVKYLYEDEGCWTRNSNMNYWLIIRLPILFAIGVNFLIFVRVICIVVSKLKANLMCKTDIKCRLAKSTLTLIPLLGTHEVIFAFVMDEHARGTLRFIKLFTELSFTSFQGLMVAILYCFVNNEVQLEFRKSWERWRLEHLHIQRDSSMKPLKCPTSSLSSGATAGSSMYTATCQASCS
Here the recorded Relative cAMP EC50 is given for each entry.
The reply should be a number in nM, with the unit left off.

The cases that follow already have their Relative cAMP EC50 on record.
| binder | Relative cAMP EC50 / nM |
| --- | --- |
| YXQGTXTSDXSIXLDXXAQXXFIEXLIEGGPSSGEPPPETE (synthetic construct; SITE 2: note = 2-Aminoisobutyric Acid; SITE 6: note = alpha-methyl-2-fluoro-L-phenylalanine; SITE 10: note = 3-(4-Pyridyl)-L-alanine; SITE 13: note = alpha-methyl-leucine; SITE 16: note = L-ornithine; SITE 17: note = Ornithine is chemically modified through conjugation of the ep) [Example 1209] | 0.41 |
| YXQGTFTSDYSQXLDKKAQXAFIEYLLEGGESSGAPPPSGS (synthetic construct; SITE 2: note = 2-Aminoisobutyric Acid; SITE 13: note = alpha-methyl-leucine; SITE 17: note = Lysine is chemically modified through conjugation of the epsilon-amino group of the Lysine side chain with (2-[2-(2-Amino-ethoxy)-ethoxy]-acetyl)-(gamma-Glu)-CO-(CH2) 16-CO2H; SITE 20: n) [Example 362] | 1.77 |

API: the following record is the query input.
Any idea what its Relative cAMP EC50 is? The binder is YXQGTXTSDXSIXLDKKAQXAFIEYLEEGGPSSGAPPPEGTGE (non-natural residues, (γGlu)2-diacid acylated Lys, C-terminal amide; synthetic construct; SITE 2: note = 2-Aminoisobutyric Acid; SITE 6: note = alpha-methyl-2-fluoro-L-phenylalanine; SITE 10: note = 3-(4-Pyridyl)-L-alanine; SITE 13: note = alpha-methyl-leucine; SITE 17: note = Lysine is chemically modified through conjugation of the epsilon-amino group of the Lysine) [Example 626]
0.889
